SYSTEM_NAME: Voltage-gated inwardly rectifying potassium channel KCNH2 (Homo sapiens, UniProt Q12809, Y652A)
Sequence (Q12809 whole entry Y652A): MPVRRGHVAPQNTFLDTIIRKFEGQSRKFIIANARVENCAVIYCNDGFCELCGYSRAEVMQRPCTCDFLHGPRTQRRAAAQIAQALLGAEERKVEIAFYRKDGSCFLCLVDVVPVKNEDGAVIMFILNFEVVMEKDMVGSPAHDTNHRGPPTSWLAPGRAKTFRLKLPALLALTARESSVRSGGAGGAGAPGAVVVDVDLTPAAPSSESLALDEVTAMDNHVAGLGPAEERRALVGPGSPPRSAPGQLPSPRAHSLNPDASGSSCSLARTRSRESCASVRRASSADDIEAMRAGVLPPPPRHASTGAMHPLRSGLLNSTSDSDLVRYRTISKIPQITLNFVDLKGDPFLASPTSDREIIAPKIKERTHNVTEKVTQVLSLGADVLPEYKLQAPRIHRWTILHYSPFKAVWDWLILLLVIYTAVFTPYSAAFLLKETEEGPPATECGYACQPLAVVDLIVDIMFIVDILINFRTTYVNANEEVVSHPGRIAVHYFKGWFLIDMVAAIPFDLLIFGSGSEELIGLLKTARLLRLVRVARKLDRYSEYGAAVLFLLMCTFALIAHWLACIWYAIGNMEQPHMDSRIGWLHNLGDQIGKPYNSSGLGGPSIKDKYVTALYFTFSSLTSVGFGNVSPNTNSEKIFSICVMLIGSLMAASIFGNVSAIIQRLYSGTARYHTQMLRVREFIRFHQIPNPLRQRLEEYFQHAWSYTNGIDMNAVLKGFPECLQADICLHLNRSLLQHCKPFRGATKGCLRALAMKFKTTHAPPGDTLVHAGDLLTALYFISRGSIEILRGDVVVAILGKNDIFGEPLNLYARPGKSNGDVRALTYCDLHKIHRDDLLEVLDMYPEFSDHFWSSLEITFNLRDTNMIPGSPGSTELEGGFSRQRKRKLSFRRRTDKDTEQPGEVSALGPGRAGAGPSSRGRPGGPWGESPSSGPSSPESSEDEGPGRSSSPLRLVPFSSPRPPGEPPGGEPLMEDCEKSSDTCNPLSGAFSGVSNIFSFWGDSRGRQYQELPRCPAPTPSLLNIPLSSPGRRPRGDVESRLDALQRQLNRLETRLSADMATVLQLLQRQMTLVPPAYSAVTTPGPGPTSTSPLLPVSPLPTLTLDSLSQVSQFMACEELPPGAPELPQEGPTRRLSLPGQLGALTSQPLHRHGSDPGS
METHOD_NOTES: Binding affinity to human ERG Y652A tandem dimeric mutant expressed in HEK293 cells assessed as inhibition of tail current measured upon repolarization to -40 mV by patch clamp method
Type: cell-based
EXPERIMENTAL_ENDPOINT: IC50 (µM)
State just the number; it will be interpreted in µM.

Entry under test: "C[C@@H]1CN(c2c(F)c(N)c3c(=O)c(C(=O)O)cn(C4CC4)c3c2F)C[C@H](C)N1" . Its IC50 was 128
